// reported melting point for each item listed

Query :: Recorded melting point of C#CCOC(=O)c1ccc(O)c(O)c1 , please.
Result :: 127 to 129 °C

Query :: Param item: CN(C)C(=O)N[C@H]1CC[C@H](CCN2CCC(c3cccc4c3CCO4)CC2)CC1
Result :: 260 °C

Query :: What do we get for COC(=O)c1ccc(C(C)(C)NC(C)=O)cc1 ?
Result :: 165 to 167 °C

Query :: Next entry: CC(C)(Oc1ccc(COCc2ccc3cn(-c4ccc(C(F)(F)F)cc4)nc3c2)cc1)C(=O)O
Result :: 129 to 131 °C

Query :: And for CCc1cn(C2CC(I)C(COC(c3ccccc3)(c3ccccc3)c3ccccc3)O2)c(=O)[nH]c1=O (centres undefined) ?
Result :: 93 to 98 °C

Query :: Entry to check: CCCc1c(C#N)ccc(NC(=NC#N)Nc2ccccc2Cl)c1O
Result :: 159 to 160 °C

Continuing:
Query :: Return reported melting point; argument: CC(C)(C)c1cc(OCc2n[nH]c(=S)o2)cc(C(C)(C)C)c1O
Result :: 195 to 196 °C

Query :: Would you mind doing CCN(CC)CCn1nc2c3c(c(NCCNCCO)ccc31)Sc1c(OC)ccc(OC)c1-2 as well?
Result :: 119 to 123 °C

----------
Listed below: melting point values for each entry.

# example entries with known answers
Query :: Field request: melting point | item: O=C1c2cc(OCc3ccccc3Cl)ccc2CCN1Cc1cccnc1
Result :: 88.5 to 90 °C

Query :: Cool, now O=C1C=C(O)CC(c2ccc3c(c2)OCCO3)C1 (stereo not given)
Result :: 188 °C

Query :: Now this one: Cc1nnc(-c2ccc3scc(-c4ccc(S(C)=O)cc4)c3c2)o1 (stereo not given)
Result :: 166 to 167 °C

Query :: Also OCc1cc2c3ccccc3ncn2n1 , if possible.
Result :: 132 to 133 °C

Query :: Here is the next compound: COc1ccc(-c2ccc(C(C)=O)cc2[N+](=O)[O-])cc1
Result :: 124 to 126 °C

Query :: Then O=C1CCN(Cc2cc([N+](=O)[O-])ccc2O)CC1C(c1ccccc1)c1ccccc1 (stereo not given) ?
Result :: 177 to 178 °C

Query :: Thanks! And CS(=O)(=O)c1ccc(C2=C(c3ccccc3)C(=O)OC2)cc1F ?
Result :: 161 to 162 °C

Query :: Another compound: Cc1c(C(F)(F)F)cnn(-c2ncc(Cl)cc2F)c1=O
Result :: 91 to 93 °C

Query :: Can you check CC(C)(C)OC(=O)N1Cc2cscc2C1 next?
Result :: 36 to 38 °C

New cases:
Query :: Which measured melting point value corresponds to COc1ccc(N(CCCC(=O)O)C(=O)C(C)N(C(=O)c2cccc(C(F)(F)F)c2)c2ccc(OC)cc2)cc1 (stereo not given) ?
Result :: 119 to 121 °C

----------
Below, each of the compounds is paired with its reported melting point value.

# annotated cases, reported melting point shown
Query :: GET /values?readout=melting point&item= COC(=O)c1cc(OC)c(N(C)C(=O)OCc2ccccc2)c(OC)c1
Result :: 130 to 131 °C

Query :: Record: CN1C(C(=O)Nc2cccc(F)c2)=C(O)c2ccc3ccccc3c2S1(=O)=O
Result :: 278 to 279 °C

Query :: Try the compound CSC(=NS(=O)(=O)c1cccnc1)SC
Result :: 115 to 118 °C

Query :: Next record, please: CC(=O)OCOC(c1ccccc1)n1cc(F)c(=O)[nH]c1=O (stereo not drawn)
Result :: 108 to 109 °C

***
Query :: Query (compound): CC12CCC3C(CCC4=CC(=O)C=C(CO)C43C)C1CCC2=O (stereo not drawn) ; field requested: melting point
Result :: 201 to 202 °C

Query :: And for O=C(O)C1c2ccccc2CCc2cc(Br)ccc21 (stereo not drawn) ?
Result :: 129 to 131 °C

Query :: Similarly, COc1ccc(COc2c(OC)ccc3c2CC(C(=O)O)N(C(=O)C(c2ccccc2)c2ccccc2)C3)cc1C (racemic) ?
Result :: 140 to 142 °C

----------
experimental_readout: melting point

Query :: Which measured melting point value corresponds to C[C@@H](n1cnc2cc(S(=O)(=O)c3ccccc3)ccc2c1=O)[C@](O)(Cn1cncn1)c1ccc(F)cc1F ?
Result :: 125 to 130 °C

Query :: Then this compound: COc1ccc(N2CCN(c3ccc(-n4cnn(C)c4=O)cc3)CC2)cc1
Result :: 246 °C

Query :: Let us now turn to CCc1cn(C)c(C2Cc3ccccc3N2C(C)=O)n1 (centres undefined)
Result :: 105 to 106 °C

Query :: Field entry: O=c1c2c(Cc3cccc(C(F)(F)F)c3)n[nH]c2c2cccnc2n1-c1cccc(C(F)(F)F)c1
Result :: 206 to 208 °C

Query :: Repeat for the following compound: Cc1ncc(C(O)=S)cc1OC(C)C
Result :: 154 to 155 °C

Query :: Thanks! And N#Cc1nn(-c2c(Cl)cc(C(F)(F)F)cc2Cl)c(NCc2ccncc2)c1SCF ?
Result :: 204 °C

----------
This listing pairs compounds with measured melting point.

Record excerpt, results attached:
Query :: Name the recorded melting point for CCCCCCCCC1C=CC(Cc2ccc(C(=O)O)o2)=C2N=C3CCCCC3=C21 (centres undefined) .
Result :: 152 to 155 °C

Query :: How about CCCCn1cc(C(=O)C(=O)O)c2cc(-c3cccc(Cl)c3)ccc21 ?
Result :: 108 to 109 °C

Query :: Okay, and COc1cc2c(cc1Nc1ncc(Cl)c(N[C@H]3[C@@H](C(N)=O)[C@@H]4C=C[C@H]3C4)n1)CCN(CC(=O)N1CCCC1)CC2 ?
Result :: 126 to 145 °C

Query :: Here is the next compound: C[C@@H](CC(=O)O)OC(=O)OCc1ccc([N+](=O)[O-])cc1
Result :: 78 to 81 °C

Others:
Query :: For the compound shown here, Cc1cc(SCCSCC(=O)O)ccc1O , give the reported melting point.
Result :: 86 °C

Query :: Okay, and CCOc1nn(Cc2ccc(OCCn3ncc4ccccc4c3=O)cc2)cc1CCC(=O)O ?
Result :: 152 to 153 °C

Query :: What would you report for COc1ccc2c(c1)c(C=C1SC(=N)NC1=O)c(C)n2C(=O)c1ccc(Cl)cc1 ?
Result :: 269 to 270 °C

Query :: Next up: COc1cccc2c(=O)c3c(Cl)ccc([N+](=O)[O-])c3[nH]c12
Result :: 315 to 320 °C

Query :: Also COc1ccc(-c2c(Br)c(CBr)nc3sc4c(c23)CCN(Cc2ccccc2)C4)cc1 ?
Result :: 177 to 178 °C

----------
experimental_readout: melting point

Previously resolved entries follow.
Query :: Consider the compound shown here: CC(C#N)(c1ccc(Cl)cc1)c1ccc(N)cc1Cl (stereo unspecified) What is its recorded melting point?
Result :: 135 °C

Query :: Then this compound: Cc1ccc(C(=O)c2noc(CC(=O)O)n2)cc1
Result :: 140 to 141 °C

Query :: Field entry: CSc1nn(C(=S)Oc2ccccc2)c(=O)n1C
Result :: 242 °C

Query :: Same for COc1ccc(C(=O)Nc2ccc(-n3nc(C(F)(F)F)cc3C(F)(F)F)cc2)c(Cl)c1
Result :: 140 to 143 °C

Query :: What about CCOC(=O)c1cccc2c3c([nH]c12)CN(CC(=O)NC(C(=O)C(F)(F)F)C(C)C)C=C3 (stereo unspecified) ?
Result :: 218 to 219 °C

Others:
Query :: What value of melting point has been reported for the following compound? COc1cccc(-c2nc(C(=O)OC(C)(C)C)c(-c3ccncc3)[nH]2)c1
Result :: 197 to 199 °C

Query :: Next compound up: CC(C)(C)OC(=O)N1CCn2c(cc3ccccc32)C1
Result :: 103 to 105 °C

Query :: Same question for CCc1cn([C@H]2C[C@H](OC(C)=O)[C@@H](/C=C/C(=O)Cc3c(Cl)cccc3Cl)O2)c(=O)[nH]c1=O please.
Result :: 165 °C

Query :: Repeat with CC1(C)OC(=O)Nc2ccc(-c3cc(CC#N)ccc3F)cc21
Result :: 184 to 187 °C

Query :: Check CC(CCN(C)c1ccccc1)=NO too.
Result :: 46 to 49 °C

Query :: // same read-out, input: CC(=O)OC1CCC2(C)C(CCC3C2CCC2(C)C(C(C)=O)CCC32)C1 (stereo unspecified)
Result :: 141 to 142 °C

Query :: Cool, now CC(=O)Nc1ccc(-c2cc(C(=O)c3ccc(C)cc3)sc2N2CCOCC2)cc1
Result :: 168 °C

Query :: Same question, Cn1c(C(F)(F)F)cc(=O)n(-c2ccc(Cl)c3nc(C(C)(C)C)oc23)c1=O this time
Result :: 146 to 148 °C

Query :: Next entry: CCCCCCCCCCCC(=O)O[C@H](CCCCCCCCCCC)CC(=O)N[C@@H](CO)C(=O)OCc1ccccc1
Result :: 53 to 54 °C

Query :: For C=CCCCOc1cc(OCCCCCCCC)ccc1C(=O)O then?
Result :: 67 to 68 °C

Query :: Try Cc1nc2c(cc1C(=O)N(C(=N)N)C(=O)OC(C)(C)C)CCCCC2CO (stereo unspecified) next.
Result :: 98 to 100 °C

Query :: Continue with O=Cc1cccc2cc3c(cc12)sc1ccccc13
Result :: 199 to 200 °C

Query :: Then what about the compound CC(=O)OCC1OC(n2cnc3c(Cl)nc(N)nc32)C(OC(C)=O)C1OC(C)=O (stereo unspecified) ?
Result :: 58 to 60 °C

Query :: Ok, now Cc1oncc1C(=O)N1CCC(C)CC1
Result :: 44 to 45 °C

Query :: Same read-out for CN1CCN(c2c(F)c(N)c3c(=O)c(C(=O)O)cn(C4CC4)c3c2F)CC1 ?
Result :: 247 to 248 °C

Query :: Another compound to look at: CCc1cnc(SC(C)(C)C)c(C#N)c1
Result :: 63 to 66 °C
